Test system: MDA-N
experimentSummary: NCI tumour cell line growth inhibition, 48 h
propertyMeasured: TGI

Documented TGI of Cc1ccc([N+](=O)[O-])cc1S(=O)(=O)Nc1ccc(C2=NN(C(=O)c3ccccc3)C(c3ccccc3)C2)cc1 (centres undefined) : 67.4 µM

// `Cc1cc2[nH]c(Cl)c(/C=C3\C(=O)Nc4ccccc43)c2cc1O` : TGI value = 1.97 µM

Data point: O=C1OCC=C1COC1OC(CO)C(O)C(O)C1O (centres undefined) ; TGI = > 100 µM

What the record says about CC12CCC(C(Br)(Br)C1=O)C2(C)C (centres undefined) : TGI is 2.65 µM

Lab note: O=c1[nH]c(=O)n(C2CC(O)C(CO)O2)c2nc3cc4ccccc4cc3nc12 (centres undefined) gave TGI of > 100 µM

Record CCOP(=O)(O)C(Nc1ccc(N=Nc2ccccc2)cc1)c1ccc(C(Nc2ccc(N=Nc3ccccc3)cc2)P(=O)(O)OCC)cc1 (centres undefined) , field TGI: 40.8 µM

response.value for `C/C(=N\O)c1ccc(Nc2nc3ccccc3c3occc23)cc1` (field: TGI) = 96.6 µM

Record `Cc1ccc2nc(-c3ccc(N)c(Br)c3)sc2c1` , field TGI: > 100 µM

Short answer for `CCN(CC)CCOc1ccc(N2C(=O)c3cccc4cc([N+](=O)[O-])cc(c34)C2=O)cc1` : TGI was 30.3 µM

So, `CC(C)[C@]12O[C@H]1[C@@H]1O[C@@]13[C@@]1(C)CCC4=C(COC4=O)[C@@H]1C[C@@H]1O[C@@]13C2=O` ? Its TGI was 0.0265 µM

Consider `COc1nc(N)c(C#N)c(C#N)c1C#N` . Its measured TGI is > 10 µM

Entry `C/C(=N\NC1=NCCN1)c1cn(C2=NCCN2)nc1C` ; TGI = > 100 µM

Form: compound = `O=c1cc(-c2ccccc2)oc2cc(Oc3nnnn3-c3ccccc3)ccc12` ; TGI = > 100 µM

The reported value for `CC(C)c1cc(Cl)nc(Cl)n1` in terms of TGI is > 100 µM

###

Tested on: DMS 273 small cell lung
experimentSummary: NCI tumour cell line growth inhibition, 48 h
Please respond with reported TGI for every item in the list.

Data point: `Cc1cc(NS(=O)(=O)c2ccc(NC(=O)c3cccn4c(=O)c5ccccc5nc34)cc2)no1` ; TGI = > 100 µM

Lookup result for `Nc1nc(-c2ccccc2)c(Cl)c(-c2cc(Cl)ccc2O)n1` ; measured TGI: 90.9 µM

GET /value?item= CC1CC2OC(=O)CC2C[C@@H]1O[Si](C)(C)C(C)(C)C (stereo partly specified) &field=TGI returns > 100 µM

Looking up CC(CC[C@@H](C)C1CCC2[C@@H]3CC(O)C4CC(O)[C@@H](O)C[C@]4(C)C3CC[C@@]21C)C(C)(C)C (stereo partly specified) , I found its TGI recorded as > 100 µM

Just so you know, measured TGI for `Cc1cc(N(CCC#N)CCC#N)ccc1/C=C\C(=O)Nc1ccccc1` came out at > 100 µM

Documented TGI of `COc1ccc(C2=C3c4cc(OC)c(OC)cc4CCN3C(=S)SS2)cc1OC` : > 100 µM

So, O=C1/C(=C\c2ccccc2)C2/C(=C\c3ccccc3)C(=O)/C(=C\c3ccccc3)C2/C1=C\c1ccccc1 (stereo unspecified) ? Its TGI was 3.17 µM

TGI recorded for this molecule, `O=NN(CCCl)C(=O)NCCCl` , is 157 µM

// TGI lookup, molecule = `[N-]=[N+]=Nc1ccccc1Oc1ccccc1` , result: > 100 µM

The molecule CCC(C)CN1C(=O)NC(Cc2ccccc2)C1=O (stereo unspecified) showed TGI equal to > 100 µM

// sample `O=C1CCCCCCCCCCC(=O)N2CCOCCOCCN1Cc1cccc(n1)C2` , its TGI was > 100 µM

The molecule listed as CC1CC(c2ccc([N+](=O)[O-])cc2)=Nc2ccccc2S1 (stereo unspecified) has a reported TGI of 41.7 µM

For reference, reported TGI for `O=C(Cn1ccnc1[N+](=O)[O-])c1ccccc1` stands at > 100 µM

Value of TGI reported for the molecule `CCc1cccc(C)c1NC(=O)C1=C(C)NC(C)=C(C(=O)Nc2c(C)cccc2CC)C1c1ccc([N+](=O)[O-])cc1` is > 100 µM

Given item `O=P(O)(NCCCl)NCCCl` , the value recorded as its TGI is > 100 µM

Sample O=C1C2c3[nH]c4ccccc4c3C3CCCC3C2C(=O)N1c1ccccc1 (stereo unspecified) ; TGI observed: > 100 µM

###

Field: GI50. Provide a value for each of the compounds that follow.
Tested on: SW-620 colon
experimentSummary: NCI tumour cell line growth inhibition, 48 h
*1 amine or outer side, *2 acyl side, *3 side chain or, on linkers, in order; H or OH if unused. Where a SMILES comes first, the peptide text is derived from it. Residues, ends and D or L forms follow the SMILES beside them. Bridges are numbered along the chain shown (N, C = ends). [ ]: non-standard residue; d: D form. *: point of attachment. Adda = CO[C@@H](Cc1ccccc1)[C@@H](C)/C=C(C)/C=C/[C@H](N[*:1])[C@H](C)C(=O)[*:2]; dAsp(3S-Me) = C[C@H](C(=O)[*:3])[C@@H](N[*:1])C(=O)[*:2]; d(γGlu) = O=C(O)[C@@H](CCC(=O)[*:2])N[*:1]; NMeDha = C=C(NC)C(=O)O; Boc = CC(C)(C)OC(=O)*

// sample `[Cl-].[Cl-].[Cl-].[O-]c1cccc2cccnc12.[O-]c1cccc2cccnc12.[O]=[Mo]` , its GI50 was 1920 nM

In plain terms, `CCOC(=O)[C@H]1O[C@@H]1C(=O)N[C@@H](CC(C)C)C(=O)NCCc1ccc(O)cc1` has a documented GI50 of > 100000 nM

The recorded GI50 for entry `COc1cc2ncn(-c3cc(O[C@H](C)c4ccccc4Cl)c(C(N)=O)s3)c2cc1OC` equals 5.5 nM

`O=C(/C=C/c1ccc(Cl)cc1)/C=C/c1cc2ccccc2[nH]c1=O` has a reported GI50 of 2310 nM

// C=C1C(=O)N[C@H](C)C(=O)N[C@@H](CC(C)C)C(=O)N[C@@H](C(=O)O)[C@H](C)C(=O)N[C@@H](CCCN=C(N)N)C(=O)N[C@@H](/C=C/C(C)=C/[C@H](C)[C@H](Cc2ccccc2)OC)[C@H](C)C(=O)N[C@@H](C(=O)O)CCC(=O)N1C (R[Adda][d(γGlu)][NMeDha][dA]L[dAsp(3S-Me)]-OH; lactam N-7) : GI50 value = > 5000 nM

Field GI50 (entry Nc1nc2c(c3ncccc13)C(c1cccc(Br)c1)Cc1ncccc1-2 (stereo unspecified) ) reads 479 nM

Measured GI50, `COc1cc(NCCCCCN=C(N)N)c2ncccc2c1` : 4970 nM

Input `N=C(N)N=Nc1ccc(NN=C(N)N)c2c1ncc1c2nc2sccn21` . Output GI50: 23900 nM

The compound listed as COc1cccc2c1C(=O)c1c(O)c3c(c(O)c1C2=O)C[C@@](O)(C(C)O)C[C@@H]3OC1CC(N)C(O)C(C)O1 (stereo partly specified) shows GI50 equal to 881 nM

Measured GI50 of COC(=O)CNC(=O)C(Cc1ccccc1)NC(=O)C(Cc1ccccc1)NC(=O)OC(C)(C)C (stereo not drawn) (Boc-Phe-Phe-Gly-OMe; configuration not given here) : 49.1 µg/mL

The reported GI50 of the compound `ClCc1ccc(-c2ccc(Cn3cnc4nc(Cl)nc(Cl)c43)cc2)cc1` was 2220 nM

GET /value?item= `NCCN.NCCN.[Cl-].[O]=[Os+2]=[O]` &field=GI50 returns > 100000 nM

Documented GI50 of `O=C(N/N=C/c1ccccc1O)c1ccccc1O` : 877 nM

So for `O=C(Nc1ccc(CN2CCOCC2)cc1)c1ccc(-c2cc(Cl)ccc2Cl)o1` , the logged GI50 turned out to be 3330 nM

According to the records, this compound `Nc1nc(/C=C\c2ccc([N+](=O)[O-])cc2)nc(N2CCN(c3ccccc3)CC2)n1` displays GI50 of 40400 nM

The reported value for `O=C1Nc2cc(Cl)ccc2/C1=C\c1c(-c2ccc(F)cc2)nc2ccccn12` in terms of GI50 is 445 nM

###

Test system: BT-549 breast
experimentSummary: NCI tumour cell line growth inhibition, 48 h
propertyMeasured: GI50

For record `CCn1cc(C(=O)O)c(=O)c2cc(F)c(N3CCN(S(=O)(=O)c4ccc(Cl)cc4)CC3)cc21` the listed GI50 is 2440 nM

Please fill in: GI50 reported for `CCOc1nc(-c2ccccc2)cc2c(O)c(C(=O)N/N=C/c3ccc(O)cc3O)[nH]c(=O)c12` = 1650 nM

Sure, the documented GI50 for `ClCc1ccc(-c2ccc(Cn3cnc4nc(Cl)nc(Cl)c43)cc2)cc1` is 2720 nM

Field GI50 (entry `O=C(Nc1cccc(-n2cc(-c3ccncc3)c(-c3ccc(Cl)c(O)c3)n2)c1)Nc1ccc(Cl)c(C(F)(F)F)c1` ) reads 1160 nM

So, `COc1ccc(C(=O)c2cc(OC)c3c(c2)OCO3)cc1O` ? Its GI50 was 3060 nM

// GI50 value for `CN1CCc2c(c3ccccc3c3ccccc23)C1` : 12400 nM

# GI50 (compound: `CCOC(=O)N1C/C(=C/c2ccc(F)cc2)C(=O)/C(=C/c2ccc(F)cc2)C1` ) is 1650 nM

// recorded GI50 for `CCCS(=O)(=O)Nc1ccc(F)c(C(=O)c2c[nH]c3ncc(Cl)cc23)c1F` : 13300 nM

Quick note, GI50 for `O=C(N/N=C/c1ccccc1O)c1ccccc1O` landed at 4440 nM
